Values were extracted from patent US8299074B2.

tested on: U937 cells; assay: LPS-induced TNF alpha release in U937 cells; type: cell-based; conditions: Homo sapiens; read-out: DU937 (LPS) TNFα REC50
Entries and their measured EC50 follow.
reported_endpoint: EC50

smiles_string: Cc1ccc(-n2nc(C(C)(C)C)cc2NC(=O)Nc2ccc(Oc3ccnc(NC(=O)C4CCOCC4)c3)c3ccccc23)cc1
reported_endpoint: EC50
value_measured: < 5000 nM
--
smiles_string: CNC(=O)Nc1nccc(Oc2ccc(NC(=O)Nc3cc(C(C)(C)C)nn3-c3ccc(C)cc3)c3ccccc23)n1
reported_endpoint: EC50
value_measured: < 10 nM
--
smiles_string: Cc1ccc(-n2nc(C(C)(C)C)cc2NC(=O)Nc2ccc(Oc3ccnc(NC(=O)CO)c3)c3ccccc23)cc1
reported_endpoint: EC50
value_measured: < 10 nM
--
smiles_string: Cc1ccc(-n2nc(C(C)(C)C)cc2NC(=O)Nc2ccc(Oc3ccnc(NC(=O)N4CCN(C)CC4)c3)c3ccccc23)cc1
reported_endpoint: EC50
value_measured: < 10 nM
--
smiles_string: CCNC(=O)Nc1cc(Oc2ccc(NC(=O)Nc3cc(C(C)(C)C)nn3-c3ccc(C)cc3)c3ccccc23)ccn1
reported_endpoint: EC50
value_measured: < 5000 nM
--
smiles_string: Cc1ccc(-n2nc(C(C)(C)C)cc2NC(=O)Nc2ccc(Oc3ccnc(NC(=O)N4CCCC4)c3)c3ccccc23)cc1
reported_endpoint: EC50
value_measured: < 10 nM
--
smiles_string: COCC(=O)Nc1cc(Oc2ccc(NC(=O)Nc3cc(C(C)C)nn3-c3ccc(C)cc3)c3ccccc23)ccn1
reported_endpoint: EC50
value_measured: < 10 nM
--
smiles_string: Cc1ccc(-n2nc(C(C)(C)C)cc2NC(=O)Nc2ccc(Oc3ccnc(NC(=O)N4CC[C@@H](N(C)C)C4)c3)c3ccccc23)cc1
reported_endpoint: EC50
value_measured: < 10 nM
--
smiles_string: Cc1ccc(-n2nc(C(C)(C)C)cc2NC(=O)Nc2ccc(Oc3ccnc(NC(=O)NCC(=O)N4CCN(C)CC4)c3)c3ccccc23)cc1
reported_endpoint: EC50
value_measured: < 10 nM
--
smiles_string: Cc1ccc(-n2nc(C(C)(C)C)cc2NC(=O)Nc2ccc(Oc3ccnc(NC(=O)CNC(=O)N4CCOCC4)c3)c3ccccc23)cc1
reported_endpoint: EC50
value_measured: < 10 nM
--
smiles_string: Cc1ccc(-n2nc(C(C)(C)C)cc2NC(=O)Nc2ccc(Oc3ccnc(NC(=O)CN(C)C)c3)c3ccccc23)cc1
reported_endpoint: EC50
value_measured: < 10 nM
--
smiles_string: Cc1ccc(-n2nc(C(C)(C)C)cc2NC(=O)Nc2ccc(Oc3ccnc(NC(=O)NC4CC4)n3)c3ccccc23)cc1
reported_endpoint: EC50
value_measured: < 10 nM
--
smiles_string: Cc1ccc(-n2nc(C(C)(C)C)cc2NC(=O)Nc2ccc(Oc3ccnc(NC(=O)NC4CCN(S(C)(=O)=O)CC4)c3)c3ccccc23)cc1
reported_endpoint: EC50
value_measured: < 5000 nM
